# System: Fibroblast
# test: Multiplex assay against human fibroblast
# Format: toxicity, cell-based
# test parameters: 48 h, 1 µM, compound concentration 1 uM, replicate 1
Assignment: determine reported Population Hoechst High Intensity Objects (%) for the given compounds.
Answers are plain numbers, in %.

// worked examples, Population Hoechst High Intensity Objects (%) included
compound	measurement
Cc1c(P(=S)(c2ccccc2)c2ccccc2)n2ccccc2[n+]1C/C=C/c1ccccc1.[Br-]	12
CCCc1cc(C)[nH]c(=O)c1CNC(=O)c1cc(-c2ccc(N3CCN(C(C)C)CC3)nc2)cc2c1cnn2C(C)C	20
Cc1ccc(S(=O)(=O)NC2c3ccccc3Oc3ccccc32)cc1	19
Cl.NC[C@@H]1O[C@H](C23CC4CC(CC(C4)C2)C3)Cc2c1ccc(O)c2O	11
C[C@@H](Oc1cc(-n2cnc3ccc(CN4CCN(C)CC4)cc32)sc1C(N)=O)c1ccccc1C(F)(F)F	21
CC(/C=C1\SC(=S)N(CCCC(=O)Nc2ccc(C(=O)O)c(O)c2)C1=O)=C\c1ccccc1	14
CN1C(=O)[C@@H](NC(=O)c2cc3ccccc3[nH]2)N=C(c2ccccc2)c2ccccc21 [DEVAZEPIDE]	22
N#CCNC(=O)c1ccc(-c2ccnc(Nc3ccc(N4CCOCC4)cc3)n2)cc1	16

Working through the 5 compounds below one at a time, give Population Hoechst High Intensity Objects (%) for each.
1. CC(C)c1cc(Nc2nc(N3CCC[C@H](N)C3)ncc2C(N)=O)cc(C(C)C)n1
2. C=CC(=O)Nc1cc(-n2c(=O)ccc3cnc4ccc(-c5ccc(NS(C)(=O)=O)cc5)cc4c32)ccc1C
3. N#Cc1cccc(C(=O)Nc2cc(-c3ccccc3)nn2-c2ccccc2)c1
4. CCCCCNC(=N)N/N=C/c1c[nH]c2ccc(OC)cc12.O=C(O)/C=C\C(=O)O [TEGASEROD MALEATE]
5. CC(Cc1ccc(O)c(O)c1)C(C)Cc1ccc(O)c(O)c1 (stereo unspecified) [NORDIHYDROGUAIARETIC ACID]

1: 37; 2: 6; 3: 12; 4: 15; 5: 8
